Data provenance is the supplement of paper PMC6555819.

test system: RARa:RXR (NR concentration 270 nM, RXRa partner concentration 90 nM); test: PBM binding z-score (relative to random genomic background probes); higher = stronger binding; sequences stand for … in GC…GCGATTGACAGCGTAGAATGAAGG
ENDPOINT_LABEL: PBM binding z-score

chain_sequence=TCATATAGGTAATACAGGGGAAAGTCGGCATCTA endpoint_label="PBM binding z-score" result_value=1.08
chain_sequence=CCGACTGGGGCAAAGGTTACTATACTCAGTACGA endpoint_label="PBM binding z-score" result_value=3.21
chain_sequence=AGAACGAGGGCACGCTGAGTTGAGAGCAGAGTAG endpoint_label="PBM binding z-score" result_value=1.35
